All values here come from paper PMC4159592.

quantity.measured: pKd
pKd is a log-scale quantity: -log10 of the concentration expressed in molar.

Ask | Form field: pKd recorded for `Oc1c(Cl)c(Cl)c(Cl)c(Cl)c1Cl` with CYP126 (Mycobacterium tuberculosis) (enter value)
Reply | 3.82
